# study system: T1, HLA-DR DRB1*1101 (human)
# T1 chain 1: not shown
# T1 chain 2: not shown
# experimental details: radioligand inhibition, purified HLA-DR
# condition summary: remark: other sources report otherwise
In plain terms, low IC50, meaning strictly below 100 nM, gives Met, and everything else gives Not met.

For orientation, consider the following solved cases.
> print(dat)
                                     binder  class.name
1  QYSWRINGIPQQHTQ [CEA.624 peptide 9019.0138]     Not met
2  LLTFWNPPTTAKLTI [CEA.24 peptide 9019.0105]         Met
3       RPRFRELVSEFSRMA [Peptide 9019.0095]     Not met
4           EALLESSLRQAQQNM [Cyclin D1.252]     Not met
5              HNQVRQVPLQRLRIV [Her/neu.88]         Met

Field: below-cutoff. Rule: recorded IC50 strictly less than 100 nM. Subject: AKGLQSLPTHDPSPL [Peptide 9019.0098]
Not met

Field: below-cutoff. Rule: recorded IC50 strictly less than 100 nM. Subject: SDSVILNVLYGPDAP [CEA.123 peptide 9019.0119 (position 226)]
Not met
